// reported composite Z-score per item
# measurement.description: small-molecule microarray binders of probe aXIP, primary screen, biochemical, NeuroSMM set, 635/667 nm fluorescence (AID 1119);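 further: probe is the protein aXip251-270 applied at 1 µg/mL to compound-printed slides; binding of probe to printed compounds measured as 667 nm fluorescence plus signal to noise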
# condition.parameters: higher = more signal, called active from +8 up or from −8 down
quantity: composite Z-score

- compound: "CC(=O)OC[C@H]1O[C@H](CC=NO[C@H](C)c2cn([C@@H]3COC[C@H]3O)nn2)C=C[C@@H]1OC(C)=O"
  measured.number: 0.195
- compound: "CC(CCN1CCCc2nc(C)c(C)cc21)=NOC[C@@H](C)[C@H](OCc1ccccc1)C(C)C"
  measured.number: 0.081
- compound: "CC=CC1=C(CO)[C@H](O)[C@H]2O[C@H]2[C@@H]1O"
  measured.number: 0.0296
- compound: "CC(CCN1CCc2nc(-c3ccccc3)c(-c3ccccc3)cc2C1)=NO[C@@H](C)c1cc(-c2c(C)cc(C)cc2C)no1"
  measured.number: 0.0956
- compound: "C#CCCCON=C1C[C@@H](O)[C@@H](O)[C@@H]2[C@@H]3C(=O)N(CC)C(=O)[C@@H]3CC[C@H]12"
  measured.number: 0.52
- compound: "CO[C@H]1COC(=O)CC=C[C@@H](C)COC(=O)[C@H]2CCCN2C(=O)CC=C[C@H]1C"
  measured.number: 0.297
- compound: "CCOC(=O)[C@H](CC(C)C)NC(=O)CCC1CC(OC(=O)NCc2ccc3c(c2)OCO3)CC2(CCCC(COC(=O)NCCc3ccc(Cl)cc3)O2)O1 (stereo partly drawn)"
  measured.number: -0.232
- compound: "CC(=O)OC[C@H]1O[C@H](CCON=C(C)C)C=C[C@@H]1OC(C)=O"
  measured.number: -0.0706
